- System: SK-OV-3
- experiment.notes: NCI tumour cell line growth inhibition, 48 h
The source made the active and inactive calls. Cut-off read from the data, not from the text of the source: active = GI50 up to about 1.1 µM and inactive = higher.
Would you mind answering with one of these outcomes? yes for active, no for inactive

Task: Test call for this compound, please: S=C(Nc1ccccc1)N1N=C2c3ccccc3CC[C@H]2[C@@H]1c1ccccc1
Output: no

Task: Test call for this compound, please: Cn1c(=O)c2ccccc2c2ccccc21
Output: no

Task: Test call for this compound, please: CCOP12(OCC)NC(=O)OC1(C(F)(F)F)c1ccccc1O2 (configuration not stated)
Output: no

Task: Test call for this compound, please: CC1=C(C(=O)Nc2ccc(Cl)c(C(=O)OC(C)C)c2)SCCO1
Output: no

Task: Test call for this compound, please: CN(CCO)c1nc(N)cc(=O)[nH]1
Output: no

Task: Test call for this compound, please: Cc1ccccc1C(=N)c1ccccc1Cc1cccc2ccccc12
Output: no

Task: Test call for this compound, please: N#Cc1nc(Cc2ccccc2)oc1N
Output: no

Task: Test call for this compound, please: C[n+]1ccccc1/C=C/c1ccc2c(c1)OCO2
Output: no

Task: Test call for this compound, please: COC(=O)/C(C#N)=C(\Nc1ccccc1)N1CCCCC1
Output: no

Task: Test call for this compound, please: CC(C)(C)N1C(=O)c2ccccc2C1(O)C(F)(F)F (configuration not stated)
Output: no

Task: Test call for this compound, please: CC1=NN(c2ccccc2)C(=O)/C1=C\c1ccc([N+](=O)[O-])cc1
Output: no

Task: Test call for this compound, please: O=C(c1nc2ccccc2nc1O)C(O)c1ccccc1 (configuration not stated)
Output: no

Task: Test call for this compound, please: C/N=C(\N)N/N=C(\C)c1ccc2oc3ccc(/C(C)=N/N/C(N)=N/C)cc3c2c1
Output: no

Task: Test call for this compound, please: CCOC(=O)C#Cc1ccc([N+](=O)[O-])cc1
Output: no

Task: Test call for this compound, please: CC(=O)c1c2c(cc3c1CC1(Cc4cc5c(cc4C1)CCC5)C3)CCC2
Output: no

Task: Test call for this compound, please: O=C(Cc1nc2ccccc2s1)Nc1ccc(Cl)cc1
Output: no

Task: Test call for this compound, please: C[N+](C)(C)CCC(=O)N1C/C(=C\c2ccccc2)C(=O)/C(=C/c2ccccc2)C1
Output: no

Task: Test call for this compound, please: C=CCCCCCCC#CCCCCCCCCCC[C@@H]1C(=O)O[C@H](C)[C@@H]1O.CCCCCCCCC#CCCCCCCCCCC[C@@H]1C(=O)O[C@H](C)[C@@H]1O
Output: no

Task: Test call for this compound, please: N#CCC(=O)c1cc(OCc2cc(OCc3ccc(Br)cc3)cc(OCc3ccc(Br)cc3)c2)cc(OCc2cc(OCc3ccc(Br)cc3)cc(OCc3ccc(Br)cc3)c2)c1
Output: no

Task: Test call for this compound, please: CC1=NN(c2ccccc2Cl)C2(C1)C(Cl)C(=O)N2c1nc2ccccc2s1 (configuration not stated)
Output: no

Task: Test call for this compound, please: CCN(CC)CCCC(C)Nc1c(Sc2cnc3cc(Cl)ccc3c2NC(C)CCCN(CC)CC)cnc2cc(Cl)ccc12 (configuration not stated)
Output: no

Task: Test call for this compound, please: O=C(NC(CO)CO)c1ccc2cc(C(=O)N3CC(CCl)c4ccc([N+](=O)[O-])cc43)[nH]c2c1 (configuration not stated)
Output: no

Task: Test call for this compound, please: CCOC(=O)CSc1nnc(C(Sc2nc(-c3ccccc3)c(-c3ccccc3)[nH]2)C(C)C)n1-c1ccccc1 (configuration not stated)
Output: no

Task: Test call for this compound, please: CC(=O)OCC1OC(OCC2OC(N3C(=S)N[C@H]([C@@H](O)[C@H](O)[C@H](O)CO)[C@H]3O)C(OC(C)=O)C(OC(C)=O)C2OC(C)=O)C(OC(C)=O)C(OC(C)=O)C1OC(C)=O (some centres not stated)
Output: no

Task: Test call for this compound, please: COc1ccc(CCN2C(=O)CC34C=CC(CC3C2=O)O4)cc1OC (configuration not stated)
Output: no

Task: Test call for this compound, please: CCOC(=O)/C(O)=C1\C(=O)N(C)C(=O)C1c1ccc(OC)c(OC)c1 (configuration not stated)
Output: no

Task: Test call for this compound, please: COC(=O)Cc1ccc2c(cnn2-c2ccccc2)c1OC
Output: no

Task: Test call for this compound, please: Brc1ccccc1/C=C\C1(c2ccccc2)OCCO1
Output: no

Task: Test call for this compound, please: CCCCCC(=O)n1[nH]c(=O)n(-c2ccc(OC)cc2)c1=O
Output: no

Task: Test call for this compound, please: CCOC(=O)CN1CCNCCN(CC(=O)OCC)CCNCC1
Output: no

Task: Test call for this compound, please: CCOc1cc(NC(C)=O)ccc1C(=O)NN1C(=O)CSC1c1ccccc1 (configuration not stated)
Output: no

Task: Test call for this compound, please: O=c1cc(-c2ccc(O)c(O)c2)oc2cc(O[C@H]3O[C@H](CO)[C@@H](O)[C@H](O)[C@H]3O)cc(O)c12
Output: no

Task: Test call for this compound, please: CN(C)CCNc1ccc2c(=O)n(CCN(C)C)c(=O)n3c4ccc(N)cc4c(=O)c1c23
Output: yes

Task: Test call for this compound, please: CSc1ncc2c(n1)-c1ccccc1OC2N1CCCC1 (configuration not stated)
Output: no

Task: Test call for this compound, please: CCOC(=O)C1=C(O)C(=O)c2c(OC)ccc(OC)c2C1=O
Output: no

Task: Test call for this compound, please: O=C1Oc2ccccc2C(=O)/C1=C/N1C(=O)N/C(=C\c2cccc(O)c2)C1=O
Output: no

Task: Test call for this compound, please: O=C1/C(=C/c2ccc(O)cc2)Oc2ccccc21
Output: no

Task: Test call for this compound, please: Brc1c(C#CCC(c2ccccc2)(c2ccccc2)c2ccccc2)ccc(C#CCC(c2ccccc2)(c2ccccc2)c2ccccc2)c1Br
Output: no

Task: Test call for this compound, please: COC(=O)C(CCC1(C)OCCO1)C(C)=O (configuration not stated)
Output: no

Task: Test call for this compound, please: C/C(CCc1ccccc1)=N\NC(N)=S
Output: no

Task: Test call for this compound, please: CCOC(=O)C1C(=S)NC(=O)C1C#N (configuration not stated)
Output: no

Task: Test call for this compound, please: CC1=C2NCN(C)N=C2C(C#N)(C#N)C1(C#N)C#N
Output: no

----------
- Tested on: MDA-MB-435
- experiment.notes: NCI tumour cell line growth inhibition, 48 h
Active and inactive are the calls of the source. Cut-off read from the data, not from the text of the source: active = GI50 up to about 1.1 µM and inactive = higher. Numbered stars: 1 amine (or outer) side, 2 acyl side, 3 side chain; on linkers, the order of the positions; unused ones are H or OH. Square brackets hold non-standard residues; d marks the D form. Peptide text beside a SMILES is read from it. X55 = CC[C@H](C)[C@H](OC(=O)[C@@H](C)[C@@H](CC)N[*:1])C(=O)[*:2]; X31 = C[C@H](N[*:1])C(=O)C(C)(C)C(=O)[*:2]; NMeY = CN[C@@H](Cc1ccc(O)cc1)C(=O)O; NMeL = CN[C@@H](CC(C)C)C(=O)O; NMeV = CN[C@H](C(=O)O)C(C)C
Would you mind answering with one of these outcomes? 1.0 = active, 0.0 = inactive

Task: Test call for this molecule, please: CC[C@H](C)[C@@H]1OC(=O)[C@@H](C)[C@@H](CC)NC(=O)[C@H](C)NC(=O)C(C)(C)C(=O)[C@H](C)NC(=O)[C@H](Cc2ccc(OC)cc2)N(C)C(=O)[C@H](C(C)C)N(C)C(=O)CNC(=O)[C@H](CC(C)C)N(C)C(=O)CNC1=O [DOLASTATIN 11] (cyclo(A[X55]G[NMeL]G[NMeV][NMeY](Me)[X31]))
Output: 1.0

Task: Test call for this molecule, please: CN1CCN(Cn2nc(COc3ccc(Cl)cc3)n(/N=C/c3ccc(-c4ccc(Cl)cc4Cl)o3)c2=S)CC1
Output: 0.0

Task: Test call for this molecule, please: OC1CCCCCCCCCCC1[S+]1CCCC1.O[B-](F)(F)F (configuration not stated)
Output: 0.0

Task: Test call for this molecule, please: CCCCCCCCCCCCCCCCOCC(CC(F)(F)P(=O)(OCC)OCC)OC(C)=O (configuration not stated)
Output: 0.0

Task: Test call for this molecule, please: CC(C)(C)N1C(=O)c2ccccc2C1(O)C(F)(F)F (configuration not stated)
Output: 0.0

Task: Test call for this molecule, please: C/N=C(\N)N/N=C(\C)c1ccc2oc3ccc(/C(C)=N/N/C(N)=N/C)cc3c2c1
Output: 0.0

Task: Test call for this molecule, please: COC(=O)C1C(=O)C=CN([C@H](C)c2ccccc2)[C@@H]1Cc1ccc(OC)c(OCc2ccccc2)c1I (some centres not stated)
Output: 0.0

Task: Test call for this molecule, please: CC[C@@]1(C[C@H]2C[C@@]3(C(=O)OC)c4[nH]c5ccccc5c4CCN3C2=S)COC2(CCCCC2)O1
Output: 0.0

Task: Test call for this molecule, please: CC(=O)Nc1ccc(-c2nc3ccccc3s2)cc1C
Output: 0.0

Task: Test call for this molecule, please: CCOC(=O)c1nc2ccc(C(F)(F)F)cc2nc1Oc1cc(OC)cc(OC)c1
Output: 0.0

Task: Test call for this molecule, please: CC(C(N)C(=O)NC(C(=O)O)C1OC(n2ccc(=O)[nH]c2=O)C(O)C1O)C(O)c1ccc(O)cn1 (configuration not stated)
Output: 0.0

Task: Test call for this molecule, please: Nc1ccc(-c2nc3ccc(F)cc3s2)cc1I
Output: 0.0

Task: Test call for this molecule, please: CC(=O)Oc1ccc2c(c1)[nH]c1c3ccc(OC(C)=O)cc3oc(=O)c21
Output: 0.0

Task: Test call for this molecule, please: COc1ccc(-c2nc(Nc3ccccc3)sc2Cc2sc(Nc3ccccc3)nc2-c2ccc(OC)cc2)cc1
Output: 0.0

Task: Test call for this molecule, please: CC1=C(CO)C2=C(C)C3(CC3)[C@@](C)(O)C(=O)C2=C1
Output: 0.0

Task: Test call for this molecule, please: C[N+](C)(C)C(C1=CCCC1=O)c1ccccc1 (configuration not stated)
Output: 0.0

Task: Test call for this molecule, please: COC(=O)CC[C@@H](C)[C@H]1CC[C@H]2[C@@H]3CC[C@@H]4C[C@H](O)CC[C@]4(C)[C@H]3CC[C@]12C
Output: 0.0

These entries and their values trace back to ChEMBL document CHEMBL1201862.
